Biological target: Voltage-gated inwardly rectifying potassium channel KCNH2 (Homo sapiens)
Sequence (Q12809 whole entry): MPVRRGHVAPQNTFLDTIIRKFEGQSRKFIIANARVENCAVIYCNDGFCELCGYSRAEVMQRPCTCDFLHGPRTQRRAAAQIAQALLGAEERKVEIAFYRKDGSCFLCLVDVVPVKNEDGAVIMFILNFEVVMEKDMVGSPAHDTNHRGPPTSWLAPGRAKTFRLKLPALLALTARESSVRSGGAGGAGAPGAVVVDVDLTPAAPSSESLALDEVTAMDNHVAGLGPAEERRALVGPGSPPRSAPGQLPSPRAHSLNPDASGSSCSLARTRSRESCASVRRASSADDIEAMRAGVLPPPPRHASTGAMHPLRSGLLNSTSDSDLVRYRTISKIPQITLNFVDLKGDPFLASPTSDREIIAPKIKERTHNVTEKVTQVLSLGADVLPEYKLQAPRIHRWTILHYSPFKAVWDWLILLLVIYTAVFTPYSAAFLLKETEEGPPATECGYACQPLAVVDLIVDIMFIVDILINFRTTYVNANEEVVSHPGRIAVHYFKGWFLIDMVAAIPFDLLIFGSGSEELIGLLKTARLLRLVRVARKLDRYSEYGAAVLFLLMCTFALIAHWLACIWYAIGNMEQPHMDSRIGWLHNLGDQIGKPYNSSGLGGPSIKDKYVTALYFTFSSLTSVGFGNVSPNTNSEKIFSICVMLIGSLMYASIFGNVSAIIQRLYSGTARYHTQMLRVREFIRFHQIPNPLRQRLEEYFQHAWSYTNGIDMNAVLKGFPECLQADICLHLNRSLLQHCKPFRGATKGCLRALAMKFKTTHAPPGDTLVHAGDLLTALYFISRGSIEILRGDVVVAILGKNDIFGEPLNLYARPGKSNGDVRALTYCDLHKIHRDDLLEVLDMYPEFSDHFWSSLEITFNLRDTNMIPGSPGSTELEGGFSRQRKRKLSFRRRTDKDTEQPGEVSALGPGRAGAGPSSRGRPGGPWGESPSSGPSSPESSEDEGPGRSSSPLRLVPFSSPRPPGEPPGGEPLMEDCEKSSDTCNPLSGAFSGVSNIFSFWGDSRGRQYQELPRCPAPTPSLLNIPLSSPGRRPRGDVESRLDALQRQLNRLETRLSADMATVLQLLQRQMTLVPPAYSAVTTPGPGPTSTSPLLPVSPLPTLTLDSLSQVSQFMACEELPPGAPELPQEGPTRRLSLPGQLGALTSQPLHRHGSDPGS
Readout label: IC50

Incoming: Provide the documented IC50 with Voltage-gated inwardly rectifying potassium channel KCNH2 (Homo sapiens) as the system for "COc1cc(C)[nH]c(=O)c1CN1CCc2c(Cl)cc([C@H](OC)C3COC3)c(Cl)c2C1=O"
Outgoing: > 100 µM

* * *

Test: Passive permeability in MDCK cells at 2 uM after 90 mins by LC-MS/MS analysis
Assay type: ADME, cell-based, Canis lupus familiaris
Details: dog, MDCK; read-out: permeability
Readout label: Papp at […], 2 µM

compound=Cc1cc(C)c(CN2CCc3c(Cl)cc([C@@H](CO)[C@@H]4CCOC4)c(Cl)c3C2=O)c(=O)[nH]1 observed_value="3 ×10⁻⁶ cm/s"
compound="Cc1cc(C)c(CN2CCc3c(Cl)cc(C(CO)C4CCOCC4)c(Cl)c3C2=O)c(=O)[nH]1 (single isomer, unassigned; (-))" observed_value="2.9 ×10⁻⁶ cm/s"
compound="COC(c1cc(Cl)c2c(c1Cl)C(=O)N(Cc1c(C)cc(C)[nH]c1=O)CC2)C1CCOC1 (single isomer, unassigned; (+)-10a)" observed_value="17.1 ×10⁻⁶ cm/s"

Incoming: Endpoint output: Papp at […], 2 µM of Cc1cc(C)c(CN2CCc3c(Cl)cc(C(CO)c4ccon4)c(Cl)c3C2=O)c(=O)[nH]1 (single isomer, unassigned; (+)) . Value?
Outgoing: 5.8 ×10⁻⁶ cm/s

* * *

Biological target: Histone-lysine N-methyltransferase EZH2 (Homo sapiens)
Sequence (Q15910 whole entry): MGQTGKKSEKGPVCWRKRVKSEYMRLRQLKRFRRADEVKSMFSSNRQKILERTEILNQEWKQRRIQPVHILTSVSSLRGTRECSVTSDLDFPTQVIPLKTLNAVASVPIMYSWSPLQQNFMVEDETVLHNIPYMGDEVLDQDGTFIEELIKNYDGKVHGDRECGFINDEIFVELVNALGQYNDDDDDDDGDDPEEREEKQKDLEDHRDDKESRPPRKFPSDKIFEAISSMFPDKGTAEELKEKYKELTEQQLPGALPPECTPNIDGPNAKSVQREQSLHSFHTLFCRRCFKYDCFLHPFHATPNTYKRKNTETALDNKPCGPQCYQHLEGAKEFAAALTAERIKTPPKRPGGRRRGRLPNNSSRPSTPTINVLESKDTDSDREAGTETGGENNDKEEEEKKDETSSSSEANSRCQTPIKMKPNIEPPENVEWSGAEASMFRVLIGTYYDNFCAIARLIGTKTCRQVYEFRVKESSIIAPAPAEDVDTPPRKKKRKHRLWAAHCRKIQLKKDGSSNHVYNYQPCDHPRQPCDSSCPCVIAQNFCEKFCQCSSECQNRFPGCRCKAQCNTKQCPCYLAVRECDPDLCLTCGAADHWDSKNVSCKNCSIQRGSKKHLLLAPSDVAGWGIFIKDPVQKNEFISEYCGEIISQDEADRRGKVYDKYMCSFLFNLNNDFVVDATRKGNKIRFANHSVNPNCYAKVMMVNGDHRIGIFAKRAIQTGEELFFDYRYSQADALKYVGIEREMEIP
Experiment: Inhibition of EZH2 in human KARPAS422 cells assessed as reduction in H3K27me3 level after 72 hrs by ELISA
pIC50: −log10 of the molar value.
I would appreciate it if you labelled entries Y when pIC50 is 7 or higher, otherwise N.

Incoming: Test whether the compound "COc1cc(C)[nH]c(=O)c1CN1CCc2c(Cl)cc([C@@H](O)C3COC3)c(Cl)c2C1=O" records pIC50 of 7 or higher.
Outgoing: N

Incoming: Test whether the compound CCOC(c1cc(Cl)c2c(c1Cl)C(=O)N(Cc1c(C)cc(C)[nH]c1=O)CC2)C1CS(=O)(=O)C1 (single isomer, unassigned) records pIC50 of 7 or higher.
Outgoing: N

* * *

Target: Cytochrome P450 2D6 (Homo sapiens, UniProt P10635)
Sequence (P10635 whole entry): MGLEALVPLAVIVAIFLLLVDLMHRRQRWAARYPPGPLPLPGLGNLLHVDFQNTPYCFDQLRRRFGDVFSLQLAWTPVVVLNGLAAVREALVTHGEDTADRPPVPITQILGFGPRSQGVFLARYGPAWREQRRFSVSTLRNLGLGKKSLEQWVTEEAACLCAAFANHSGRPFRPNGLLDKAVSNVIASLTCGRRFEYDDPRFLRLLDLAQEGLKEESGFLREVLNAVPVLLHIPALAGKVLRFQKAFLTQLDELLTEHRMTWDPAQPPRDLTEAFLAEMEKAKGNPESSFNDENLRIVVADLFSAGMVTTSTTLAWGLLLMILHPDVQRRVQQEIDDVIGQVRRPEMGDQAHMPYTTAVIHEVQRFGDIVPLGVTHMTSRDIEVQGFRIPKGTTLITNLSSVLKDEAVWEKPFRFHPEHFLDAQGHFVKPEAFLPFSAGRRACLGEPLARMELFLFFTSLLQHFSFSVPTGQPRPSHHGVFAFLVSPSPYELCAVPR
pIC50: −log10 of the molar value.
Readout label: pIC50

Incoming: Endpoint output: pIC50 of COc1cc(C)[nH]c(=O)c1CN1CCc2c(Cl)cc([C@H](OC)C3COC3)c(Cl)c2C1=O [MEVROMETOSTAT] . Value?
Outgoing: < 4.52

* * *

Test: Kinetic solubility of the compound
Type: physicochemical
Conditions: read-out: Kinetic_solubility
Listing: log10 of solubility kinetic of selected compounds
All values: log10 solubility kinetic [µM].

Some compounds with known log10 of solubility kinetic results, for comparison:
compound=Cc1cc(C)c(CN2CCc3c(Cl)cc([C@@H](C)CO)c(Cl)c3C2=O)c(=O)[nH]1 observed_value=2.16
compound="COc1cc(C)[nH]c(=O)c1CN1CCc2c(Cl)cc(C(OC)C3(C)COC3)c(Cl)c2C1=O (single isomer, unassigned; (+))" observed_value=2.69
compound="COC(c1cc(Cl)c2c(c1Cl)C(=O)N(Cc1c(C)cc(C)[nH]c1=O)CC2)C1CCOCC1 (single isomer, unassigned; (+))" observed_value=1.76

Incoming: Endpoint output: log10 of solubility kinetic of Cc1cc(C)c(CN2CCc3c(Cl)cc(C(CO)C4CCOCC4)c(Cl)c3C2=O)c(=O)[nH]1 (stereo in doubt; (+)-8b) . Value?
Outgoing: 2.70

Incoming: Endpoint output: log10 of solubility kinetic of "Cc1cc(C)c(CN2CCc3c(Cl)cc([C@@H](CO)[C@@H]4CCCO4)c(Cl)c3C2=O)c(=O)[nH]1" . Value?
Outgoing: 2.74

Incoming: Endpoint output: log10 of solubility kinetic of "Cc1cc(C)c(CN2CCc3c(Cl)cc([C@@H](CO)[C@@H]4CCOC4)c(Cl)c3C2=O)c(=O)[nH]1" . Value?
Outgoing: 2.73

Incoming: Endpoint output: log10 of solubility kinetic of COC(c1cc(Cl)c2c(c1Cl)C(=O)N(Cc1c(C)cc(C)[nH]c1=O)CC2)C1CCOC1 (single isomer, unassigned; (-)) . Value?
Outgoing: 2.62

Incoming: Endpoint output: log10 of solubility kinetic of COC(c1cc(Cl)c2c(c1Cl)C(=O)N(Cc1c(C)cc(C)[nH]c1=O)CC2)C1CCN(C(C)=O)CC1 (single isomer, unassigned; (+)) . Value?
Outgoing: 2.73

Incoming: Endpoint output: log10 of solubility kinetic of "Cc1cc(C)c(CN2CCc3c(Cl)cc([C@H](CO)[C@H]4CCCO4)c(Cl)c3C2=O)c(=O)[nH]1" . Value?
Outgoing: 2.63

Incoming: Endpoint output: log10 of solubility kinetic of CCC(OC)c1cc(Cl)c2c(c1Cl)C(=O)N(Cc1c(C)cc(C)[nH]c1=O)CC2 (single isomer, unassigned; (-)) . Value?
Outgoing: 1.64
